System tested: PI3Kδ (Homo sapiens)
Sequence (O00329 1-1044): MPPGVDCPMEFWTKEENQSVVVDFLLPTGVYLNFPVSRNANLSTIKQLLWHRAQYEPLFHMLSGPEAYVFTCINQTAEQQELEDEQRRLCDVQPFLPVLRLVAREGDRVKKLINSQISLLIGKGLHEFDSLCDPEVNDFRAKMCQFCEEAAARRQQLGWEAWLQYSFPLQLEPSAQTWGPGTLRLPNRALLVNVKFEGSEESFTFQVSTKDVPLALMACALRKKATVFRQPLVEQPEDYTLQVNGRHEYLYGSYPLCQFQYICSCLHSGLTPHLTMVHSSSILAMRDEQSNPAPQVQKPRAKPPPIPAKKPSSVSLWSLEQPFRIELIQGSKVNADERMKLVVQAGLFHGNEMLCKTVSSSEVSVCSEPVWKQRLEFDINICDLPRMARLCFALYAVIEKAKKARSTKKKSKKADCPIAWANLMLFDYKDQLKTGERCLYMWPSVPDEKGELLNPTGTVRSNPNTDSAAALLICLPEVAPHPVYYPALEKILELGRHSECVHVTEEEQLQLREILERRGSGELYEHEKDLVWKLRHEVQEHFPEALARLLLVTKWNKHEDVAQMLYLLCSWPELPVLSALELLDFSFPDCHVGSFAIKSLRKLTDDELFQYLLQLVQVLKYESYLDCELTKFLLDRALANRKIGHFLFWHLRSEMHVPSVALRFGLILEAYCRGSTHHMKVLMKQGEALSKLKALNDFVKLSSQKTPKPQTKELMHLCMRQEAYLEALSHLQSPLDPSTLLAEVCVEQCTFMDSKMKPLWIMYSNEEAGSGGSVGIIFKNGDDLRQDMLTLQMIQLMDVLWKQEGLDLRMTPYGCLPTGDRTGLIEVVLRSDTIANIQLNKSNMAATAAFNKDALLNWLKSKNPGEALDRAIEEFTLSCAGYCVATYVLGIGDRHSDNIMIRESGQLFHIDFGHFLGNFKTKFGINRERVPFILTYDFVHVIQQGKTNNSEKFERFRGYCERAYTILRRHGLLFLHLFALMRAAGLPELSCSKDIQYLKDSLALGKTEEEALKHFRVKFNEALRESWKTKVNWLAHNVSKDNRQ
pKd: −log10 of the molar value.
Quantity: pKd

Reference set, count: 3
CC(Nc1ccc(F)c(F)c1)c1cc(C(=O)N[C@H]2CCNC2)cc2ncc(N3CCOCC3)nc12 (single isomer, unassigned) [Compound 374b] :: 5.24
CC(Nc1ccc(F)c(F)c1)c1cc(C(=O)NCCCO)cc2ncc(N3CCOCC3)nc12 (single isomer, unassigned) [Compound 280a] :: 6.25
CNCCNC(=O)c1cc([C@@H](C)Oc2cccc(F)c2)c2nc(N3CCOCC3)cnc2c1 [Compound 122] :: 6.82

[1] CC(Nc1cc(F)cc(F)c1)c1cc(C(=O)O)cc2ncc(N3CCOCC3)nc12 (single isomer, unassigned) [Compound 83b]
[2] CNCCOCCN(C)C(=O)c1cc(C(C)Nc2ccc(F)c(F)c2)c2nc(N3CCOCC3)cnc2c1 (single isomer, unassigned) [Compound 345b]
[3] CNCC(O)c1cc(C2CCCN2c2cc(F)cc(F)c2)c2nc(N3CCOCC3)cnc2c1 (stereo not shown)
[4] CN(C)C(=O)c1cc(N2CCCC2c2cc(F)cc(F)c2)c2nc(N3CCOCC3)cnc2c1 (single isomer, unassigned) [Compound 395b]
Request: Arrange these 4 molecules in increasing order of pKd. Show the ranking through the labels, in the order asked for.
Response: 2, 4, 1, 3
(2: 4.64, 4: 5.45, 1: 6.89, 3: 7.54)
